Experiment: protein stability index of a GFP-peptide fusion (GPS, HEK-293T) (PSI 1-6); higher = more stable;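 note: 24-mer peptide tiles fused after GFP, lentivirally expressed, FACS-sorted into six equal bins by GFP/DsRed ratio, decoded by Illumina sequencing, PSI is the read-weighted mean bin number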
Conditions: treatment: DMSO; c terminus: a fixed tail appended
assay_metric: protein stability index

1. YVIGGRNETGYLSSVECYNLETNE [KLHL14]    2.66
2. LQHLIGLSNLTHVLYPVPLESYED [PRAME]    2.3
3. MSPSLQEGAQLGENKPSTCSFSIE [HESX1]    4.95
4. TASTKNCMVGYDMGATRCDFTLSK [CPXM2]    2.64
5. LFCDVTLTAQGQQFHCHKAVLASC [KLHL14]    2.66
6. GELLNMIVAVIDSAQLQELVCHVM [INTS3]    2.92
7. QQQRQRPPRPPPRGTPPRRHSFRK [N4BP2L1]    4.44
8. PSSQKALLLELKGLQEEPVEGFRV [CDC34]    3.68
9. HTGERPFQCNQCGASFTQKGNLLR [IKZF1]    2.21
10. AFSSRLGGSRGAPGLLMAVGQDLY [DCAF4]    2.19
11. KTSQLSYYYMGFYIHSCPKMKYKG [ATE1]    2.47
12. RNLSYTCRANRNCPIDQHHRNQCQ [NR2F2]    3.32
13. MGKRYFCDYCDRSFQDNLHNRKKH [ZMAT5]    3.03

====

Test: protein stability index of a GFP-peptide fusion (GPS, HEK-293T) (PSI 1-6); higher = more stable
Conditions: treatment: DMSO; c terminus: a fixed tail appended
// protein stability index lookup, one value per entry
assay_metric: protein stability index

1) TAGLKIFEPPAPGEGNSSQNSRNK [TNFSF13B]    5.2
2) HSGDLGQLDGLGFLYVTGHIKEIL [ACSBG2]    2.09
3) IEEACYAQTIPTKDRLEGLLAFKE [AUH]    3.73
4) PVTRNERHSYQVYRQPIPVQELVL [NET1]    2.79
5) RFNLILADTNSDRLFTVNDVKVGG [DCAF4]    2.44
6) KPANILLDAHYHVKISDFGLAKCN [RIPK4]    2.33
7) STLLPLAPSNSTSLNSTFGSTNLT [NFE2L1]    3.64
8) SRSESPPPLSDPKQAKVVARRESG [BRD3]    5.5
9) LAESEFESAAFSQGSRSGVSGGSR [PHTF1]    4.83
10) LICKYDFIMLSCVQLQRIPLSAVY [TPRG1]    3.2
11) VRGLYDFYLPREELWIYNMETGRW [KLHDC2]    2.57
12) GVVMKVRIPTCHDKPGTTQIVQLT [DENND6A]    2.02
13) MEEMSGESVVSSAVPAAATRTTSF [KCTD10]    4.76
14) IETYGPHVPELEMLGRLGYLNHVR [MNAT1]    2.4
15) RLALRQRLKCRSFKWYLENVYPEM [GALNT9]    1.95
16) SGAGHGSGSGSGPGCGSVPGSGSG [SPAG8]    5.03
17) FQEDVPMSTEEQYRIRQVNIYYYL [EFHC1]    2.52
18) TFPDLESEFQAALSRKVAKLVHFL [MAGEA6]    2.27
19) LEVNKPKNRYANVIAYDHSRVLLS [PTPRD]    2.54
20) VHQLSKKEASRHAIMRSPQMVSAI [CTNNB1]    3.06
21) QWSSDVAPTSTCRTSVGVAVLGGF [KLHL20]    2.69
22) YSQDPVYANGGLNYSYRGYGALSS [NOL4L]    2.4
23) DLLPTFRHTLQKLTCEFNNNHESL [FBXO39]    2.27
24) KHLLNLGVEIDEINVYGNTALHIA [ANKRD44]    2.19
25) VRLQSIHTMRKISNNITLREDQLD [INTS4]    3.2
26) AEPGFEPADCKRKEEAGAPGGGAG [CEBPB]    5.48
27) ERPMYGRDSAYQSITHYRPVSASR [EMD]    3.81
28) LTTASIIQLGVTPPGYSAWIKEEA [SLC6A17]    2.6
29) NQLQTKVAVLEQEIKDKDQLVLRT [SASS6]    4.65
30) ELDELQLCKNCFYLSNARPDNWFC [ZMYND11]    2.01
31) KEQVLRKGTENLQRAQAEVLQSVR [FCHSD1]    4.5
32) EPPPKSGPSLVPGKTPTVRAALIC [CD207]    3
33) SIYDNVPGSILYSSSGDLADLENE [DLC1]    4.84
34) LEPDEDPLCMLLLIDHLALRARNY [TCF25]    2.54
35) LSDFGLCTGLKKAHRTEFYRNLTH [STK38L]    2.41
36) DVHHGQGTQFTFDQDPSVLYFSIH [HDAC6]    2.04
37) PAEAEGAAQELENQMKERQGLFFD [TMEM120A]    5.33
38) NFGEFKCSDSDKKCHLWTAMDLGF [CLCN6]    2.19
39) ADVWSLGVMLYTLLVGRYPFHDSD [TRIB1]    3.15
40) SGPRQLLTLYNPTGTALRFRVLCT [MOSPD3]    2.15
41) GDFAWERVRGLGLPKLYLPTGPRR [CDKN1A]    2.98
42) AVNNGDFEAYAKICDPGLTSFEPE [CAMK2B]    4.35
43) PPKASEQETAKEEDGSVELESQVQ [C18orf25]    5.42
44) RGRMPPTQPTHGQFALTNGDPLNC [NR2F2]    4.06
45) EKGTWTELEGDVAEPLAGPACVTV [KLHL14]    4.66
46) AWQYGPCTGITRLQRWCRAKHMGL [POLD4]    2.15
47) TQDPSQPNSTKNQSLPKASPVTTS [LCOR]    5.21
48) DPFTVPTISFICRELDAISTNEEE [PRIM1]    4.85
49) LLTWTEPPVRPAGYLLSFHTPGGQ [TNXB]    2.42
50) SNLLSRFTRNEFNLESKSTIGVEF [RAB11A]    2.36
51) RNLARSQSVKMKDKLKIDLLPDGR [TAF7L]    4.09
52) LQLSEFLCEEFRNRNQRIVQLIQD [CPN1]    2.56
53) LRGGRGGSGGTRGPPSRGGHMDDG [RBMX]    5.26

====

Experiment: protein stability index of a GFP-peptide fusion (GPS, HEK-293T) (PSI 1-6); higher = more stable
Settings: treatment: MLN4924 1 uM, 8 h; c terminus: a fixed tail appended
assay_metric: protein stability index

1. EKGTWTELEGDVAEPLAGPACVTV [KLHL14]    4.6
2. EPCGPGKSKLTYMCRVDLRGHMPE [DLC1]    2.11
3. GVTAIIFCVALSDYDLVLAEDEEM [GNAI1]    2.75
4. VGERLQDTHSWKSELQREMEALAA [TEKT4]    3.92
5. RLYRLKLEELTKLQNNCTSSITRQ [TMEM120A]    2.81
6. DPQLEIAYRGNCKDVSRCVAERKY [SMOC2]    4.12
7. YFSLYCLHQETQLIHVYLPLTSHI [SNX8]    2.78
8. GEEPVPHQQVEEALSFTLLGSAPL [NEK8]    4.32
9. MSTIGSFEGFQAVSLKQEGDDQPS [TPRG1]    5.22
10. YFYDPIERDIEIGFLPWLMNEVEK [RSPH3]    2.42
11. QGRFCTIFRSYSRGAQGILLVYDI [RAB40C]    3.1
12. LFLPCLLCYPPAKGCLKLCRRCYD [SPRY1]    2.45
13. EMAFNTRCKEENTIILQQLLPLRT [NLN]    2.5
14. VGHARGLHAWQINWPARQRGTHAV [SPSB4]    2.87
15. GISTGHWSGEVKDKNVQVVELPIV [FUT8]    3.9
16. DTPVQNKRRRSVTPPEEQQEAEEP [CDC25B]    5.71
17. RLRGKLRAEIENLHRTFDPHFLRV [MOG]    2.44
18. APVTFRHHRYDDLVRTLYKVQNEC [CPN1]    2.83
19. EPPPKSGPSLVPGKTPTVRAALIC [CD207]    3
20. MSDKYHDSDEATAARLLFNMAGVT [DCTD]    3.54
21. GEKMVAAKVKGEKLDKKLKKMEQN [ATF4]    4.76
22. PPAADAPVTQIGFEAPPLQGQAAA [TRIM55]    5.15
23. EKETMQFLNDRLANYLEKVRQLER [KRT36]    2.85
24. HCMLVSNRVSWWGSTLAMLQRLKE [ZBED1]    3.46
25. NSIKNEKLEWAIDEDELRKSLSEL [PSD2]    4.72
26. LPDVEPAAFLALLRFLYSDEVQIG [BTBD1]    2.28
27. SFEAPLTPLIQQRARDSPEPGAGL [PSD2]    4.68
28. RYTFAPSVSLNKTARPFGAPPPAD [PDLIM7]    3.55
29. NVYRKRRKYFADLAMNYKHGDPIP [TPH1]    2.9
30. DKDCSLDCAGSPQKPLCASDGRTF [SMOC2]    4.76
31. YMNFRVKACNKAVAGEFSEPVTLE [FSD1]    2.93
32. VDDLKGSLKEDLTQHKFICEQCGK [SPRY1]    4.88
33. TNDSLSLKPSWFDFGFAILGFAYA [MIA2]    2.49
34. HGQEGSILVTKVEEPSKYGVVVCE [GMPPB]    3.94
35. SREITTLANNQCMATESVDHELGR [EHMT1]    4.84
36. RAPVVGVRVNVLLSRYLIEPCGPG [DLC1]    2.79
37. GKSFCHSTHLTVHRRIHTGEKPYE [ZNF8]    3.35
38. FVGAIFNGLTLLILGVIGLFTIPL [RTN2]    2.27
39. DGVPHLILIASRDIAAGEELLYDY [KMT5A]    2.13
40. VRSIQPEEKERIGQFVFARDAKAA [AASDHPPT]    4.39
41. ASHCLMNHPDLAKDLTEYLKVRSH [PDS5B]    3.01
42. TPEDSDPDHFDTAILFTRQDLCGV [ADAMTS4]    4.18
43. STTEGIQLAKELGATYLELHSLDD [RHOBTB3]    4.16
44. DLETHRLPCTSRCPRPCRESAFKL [SCNN1D]    2.44
45. RNLSYTCRANRNCPIDQHHRNQCQ [NR2F2]    3.36
46. PVTRNERHSYQVYRQPIPVQELVL [NET1]    2.88
47. KEQILEFLVLEQFLTILPEELQSW [ZNF232]    2.85
48. DIKQLIAKKIKLTAEAEELKPFFM [SOAT1]    2.15
49. VNAVLTQIDQIKRHSNVVILTTSN [TRIP13]    1.95
50. RFKDKSSEEAVREVHRLIEGKAPI [TPPP]    4.58
51. GSKEGNHHSTQPKRNKRNPIFQDS [FAM104B]    4.55
52. TKPTQGASSASEPQGLFVEALSVP [CLPTM1]    4.29
53. CTSRIFVQKSIYSEFLKRFVEATR [ALDH8A1]    2.34
